- assayed.target: recombinant cynomolgus BCMA Fc(kih) (cynomolgus, UniProt A0A2K5UD97 4-51)
- Sequence (A0A2K5UD97 entry or part of it): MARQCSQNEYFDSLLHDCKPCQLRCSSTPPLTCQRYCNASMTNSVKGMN
- assay.protocol: SPR (Biacore T200), IgG captured via anti-human Fab, BCMA Fc(kih) as analyte, 1:1 Langmuir fit
pKd: −log10 of the molar value.
We begin with a simple list: items and their reported pKd.
observed.property: pKd

# binder, observed.property, assay.result
data = [
    ("Mab 39 IgG (antibody, V domains shown) VH: EVQLLESGGGLVQPGGSLRLSCAASGFTFTQNAMGWVRQAPGKGLEWVSAISPTGFSTYYADSVKGRFTISRDNSKNTLYLQMNSLRAEDTAVYYCAKVLGWFDYWGQGTLVTVSS VL: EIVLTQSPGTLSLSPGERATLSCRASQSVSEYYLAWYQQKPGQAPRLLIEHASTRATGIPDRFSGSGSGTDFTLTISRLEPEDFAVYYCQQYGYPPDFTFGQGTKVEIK", "pKd", 8.66),
    ("Mab 21 IgG (antibody, V domains shown, also called antibody 21) VH: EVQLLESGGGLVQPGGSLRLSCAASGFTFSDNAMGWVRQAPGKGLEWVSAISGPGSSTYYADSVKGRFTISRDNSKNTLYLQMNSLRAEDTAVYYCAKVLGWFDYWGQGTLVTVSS VL: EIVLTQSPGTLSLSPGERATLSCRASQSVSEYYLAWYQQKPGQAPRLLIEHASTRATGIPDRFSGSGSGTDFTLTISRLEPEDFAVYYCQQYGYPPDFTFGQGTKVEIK", "pKd", 9.32),
    ("Mab 27 IgG (antibody, V domains shown) VH: EVQLLESGGGLVQPGGSLRLSCAASGFTFSSAPMGWVRQAPGKGLEWVSAISYIGHTYYADSVKGRFTISRDNSKNTLYLQMNSLRAEDTAVYYCAKVLGWFDYWGQGTLVTVSS VL: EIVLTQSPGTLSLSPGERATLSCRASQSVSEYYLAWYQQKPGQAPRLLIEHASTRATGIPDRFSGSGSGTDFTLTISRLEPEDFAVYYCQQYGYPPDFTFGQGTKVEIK", "pKd", 8.68),
]
